Assay: Oral bioavailability in Sprague-Dawley rat
Assay type: ADME, organism-based
Settings: in vivo
Assay Endpoint: bioavailability (%)

{"Smiles": "COc1nccc2c(=O)n(C)c(-c3ccc(OC4CCN(C5CCC5)CC4)cc3)nc12", "Result Units": "%", "Test Value": 48}

====

Experiment: Volume of distribution at steady state in Sprague-Dawley rat at 1 mg/kg, iv
Type: ADME, organism-based
Design: dose 1 mg/kg, route intravenous
Conditions: in vivo, read-out: Vdss

{"Smiles": "COc1nccc2c(=O)n(C)c(-c3ccc(OC4CCN(C5CCC5)CC4)cc3)nc12", "Vd, L/kg": 4.8}

====

System: Rattus norvegicus
Assay: Plasma clearance in Sprague-Dawley rat at 1 mg/kg, iv
Format: ADME, organism-based
Set-up: dose 1 mg/kg, route intravenous
Conditions: in vivo

{"Smiles": "COc1nccc2c(=O)n(C)c(-c3ccc(OC4CCN(C5CCC5)CC4)cc3)nc12", "clearance, mL/min/kg": 29}

Values from ChEMBL document CHEMBL1152163
